Catalogue of IC50 at 72 h values
- ASSAY METHOD TEXT: L929 cytotoxicity evaluation (resazurin)
- Assay type: cell-based
- EXPERIMENTAL CONTEXT: mouse, L929 mouse fibroblast cells; 72 hrs incubation; read-out: Cytotox L-929 IC50
- Protocol: For evaluation of compound effects on mammalian cells, L929 mouse fibroblast cells were used. Cells were maintained as adherent cultures in T-25 vented cap flasks in a humidified incubator at 37° C. in the presence of 5% CO2. […] Sub-confluent L929 cells were trypsinized, resuspended in fresh media and 10 uL was counted using hemocytometer to determine cell concentration. […] Assay plates were read using an EnVision plate reader at an excitation wavelength of 544 nm and emission of 590 nm. […]

[
  {
    "COMPOUND": "CC1(C)OB(O)c2cc(NC(=O)c3cccc(C(F)(F)F)c3F)ccc21 [compound 83]",
    "IC50 at 72 h": "> 10 µg/mL"
  },
  {
    "COMPOUND": "CC1(C)OB(O)c2cc(NC(=O)c3ccc(Br)cc3Cl)ccc21 [compound 76]",
    "IC50 at 72 h": "> 10 µg/mL"
  },
  {
    "COMPOUND": "Cc1occc1C(=O)Nc1ccc2c(c1)B(O)OC2(C)C [compound 121]",
    "IC50 at 72 h": "> 10 µg/mL"
  },
  {
    "COMPOUND": "CC1OB(O)c2cc(NC(=O)c3ccccc3C(F)(F)F)ccc21 (stereo not shown) [compound 2]",
    "IC50 at 72 h": "0.53 µg/mL"
  },
  {
    "COMPOUND": "O=C(Nc1ccc2c(c1)B(O)OC2C1CCCC1)c1ccccc1Cl (stereo not shown) [compound 18]",
    "IC50 at 72 h": "9.29 µg/mL"
  },
  {
    "COMPOUND": "CC1(C)OB(O)c2cc(NC(=O)c3ccccc3F)ccc21 [compound 37]",
    "IC50 at 72 h": "> 10 µg/mL"
  },
  {
    "COMPOUND": "CC(=O)Nc1ccc2c(c1)B(O)OC2C1CCCC1 (stereo not shown) [compound 21]",
    "IC50 at 72 h": "> 10 µg/mL"
  },
  {
    "COMPOUND": "CC1(C)OB(O)c2cc(NC(=O)c3ccc(C(F)(F)F)cc3)ccc21 [compound 36]",
    "IC50 at 72 h": "> 10 µg/mL"
  },
  {
    "COMPOUND": "CC1OB(O)c2cc(NC(=O)c3ccccc3Cl)ccc21 (stereo not shown) [compound 4]",
    "IC50 at 72 h": "1.24 µg/mL"
  },
  {
    "COMPOUND": "CC1(C)OB(O)c2cc(NC(=O)c3ccc(Cl)cc3)ccc21 [compound 45]",
    "IC50 at 72 h": "> 10 µg/mL"
  },
  {
    "COMPOUND": "Cc1cc(Br)ccc1C(=O)Nc1ccc2c(c1)B(O)OC2(C)C [compound 91]",
    "IC50 at 72 h": "> 10 µg/mL"
  },
  {
    "COMPOUND": "CC1(C)OB(O)c2cc(NC(=O)c3c(F)cccc3C(F)(F)F)ccc21 [compound 86]",
    "IC50 at 72 h": "> 10 µg/mL"
  },
  {
    "COMPOUND": "CC1OB(O)c2cc(NC(=O)c3cccc(F)c3)ccc21 (stereo not shown) [compound 10]",
    "IC50 at 72 h": "> 10 µg/mL"
  },
  {
    "COMPOUND": "CC1(C)OB(O)c2cc(NC(=O)c3cccc(OC(F)(F)F)c3)ccc21 [compound 52]",
    "IC50 at 72 h": "> 10 µg/mL"
  },
  {
    "COMPOUND": "CCCc1ccc(C(=O)Nc2ccc3c(c2)B(O)OC3(C)C)c(Cl)c1 [compound 102]",
    "IC50 at 72 h": "> 10 µg/mL"
  },
  {
    "COMPOUND": "CCCCc1ccc(C(=O)Nc2ccc3c(c2)B(O)OC3(C)C)cc1 [compound 32]",
    "IC50 at 72 h": "> 10 µg/mL"
  },
  {
    "COMPOUND": "CC1(C)OB(O)c2cc(NC(=O)c3c(F)ccc(F)c3Cl)ccc21 [compound 104]",
    "IC50 at 72 h": "> 10 µg/mL"
  },
  {
    "COMPOUND": "CC1(C)OB(O)c2cc(NC(=O)c3ccc(-c4ccccc4)cc3)ccc21 [compound 62]",
    "IC50 at 72 h": "> 10 µg/mL"
  },
  {
    "COMPOUND": "CC1(C)OB(O)c2cc(NC(=O)c3ccc(C(F)(F)F)cc3C(F)(F)F)ccc21 [compound 79]",
    "IC50 at 72 h": "> 10 µg/mL"
  }
]

* * *

- Test system: bloodstream-form trypanosome T. brucei brucei 427 strain
- ASSAY METHOD TEXT: Trypanosoma brucei brucei high-throughput in vitro drug sensitivity assay (resazurin)
- Assay type: cell-based
- EXPERIMENTAL CONTEXT: T. b. brucei vs L929
The reader will find reported Selectivity Index (L929 IC50 / T. b. brucei IC50) values listed item by item below.
REPORTED ENDPOINT: Selectivity Index (L929 IC50 / T. b. brucei IC50)

[
  {
    "COMPOUND": "COc1ccc(C(=O)Nc2ccc3c(c2)B(O)OC3C)cc1 (stereo not drawn)",
    "TEST SYSTEM": "bloodstream-form trypanosome T. brucei brucei 427 strain",
    "OBSERVED RESULT": ">185"
  },
  {
    "COMPOUND": "COc1ccc(C(=O)Nc2ccc3c(c2)B(O)OC3(C)C)cc1",
    "TEST SYSTEM": "bloodstream-form trypanosome T. brucei brucei 427 strain",
    "OBSERVED RESULT": ">9"
  },
  {
    "COMPOUND": "CC1(C)OB(O)c2cc(NC(=O)c3ccc(F)cc3Cl)ccc21",
    "TEST SYSTEM": "bloodstream-form trypanosome T. brucei brucei 427 strain",
    "OBSERVED RESULT": ">35"
  },
  {
    "COMPOUND": "O=C(Nc1ccc2c(c1)B(O)OC21CC1)c1ccc(F)cc1C(F)(F)F",
    "TEST SYSTEM": "bloodstream-form trypanosome T. brucei brucei 427 strain",
    "OBSERVED RESULT": 100
  },
  {
    "COMPOUND": "CC1(C)OB(O)c2cc(NC(=O)c3ccccc3Cl)ccc21",
    "TEST SYSTEM": "bloodstream-form trypanosome T. brucei brucei 427 strain",
    "OBSERVED RESULT": ">60"
  },
  {
    "COMPOUND": "CC1OB(O)c2cc(NC(=O)c3ccc(F)cc3F)ccc21 (stereo not drawn)",
    "TEST SYSTEM": "bloodstream-form trypanosome T. brucei brucei 427 strain",
    "OBSERVED RESULT": ">123"
  },
  {
    "COMPOUND": "O=C(Nc1ccc2c(c1)B(O)OC21CCC1)c1ccc(F)cc1Cl",
    "TEST SYSTEM": "bloodstream-form trypanosome T. brucei brucei 427 strain",
    "OBSERVED RESULT": ">58"
  },
  {
    "COMPOUND": "CC1OB(O)c2cc(NC(=O)c3ccc(F)cc3C(F)(F)F)ccc21 (stereo not drawn)",
    "TEST SYSTEM": "bloodstream-form trypanosome T. brucei brucei 427 strain",
    "OBSERVED RESULT": 13
  },
  {
    "COMPOUND": "CC1OB(O)c2cc(NC(=O)c3ccc(F)cc3)ccc21 (stereo not drawn)",
    "TEST SYSTEM": "bloodstream-form trypanosome T. brucei brucei 427 strain",
    "OBSERVED RESULT": ">200"
  }
]

* * *

Entries and their measured Cmax follow.
- ASSAY METHOD TEXT: Pharmacokinetic studies in rats (plasma, brain, CSF)
- Format: in vivo
- EXPERIMENTAL CONTEXT: male, Sprague Dawley, rat; CSF, oral, rats, normalized to 25 mg/kg

[
  {
    "MOLECULE": "O=C(Nc1ccc2c(c1)B(O)OC2)c1ccc(F)cc1C(F)(F)F [E19]",
    "Cmax": "1200 ng/mL"
  },
  {
    "MOLECULE": "CC1(C)OB(O)c2cc(NC(=O)c3ccc(F)cc3C(F)(F)F)ccc21 [compound 82]",
    "Cmax": "1000 ng/mL"
  }
]

* * *

Here the recorded AUC(0-inf) is given for each entry.
- ASSAY METHOD TEXT: Pharmacokinetic studies in rats (plasma, brain, CSF)
- Assay type: in vivo
- EXPERIMENTAL CONTEXT: male, Sprague Dawley, rat; plasma, oral, rats, normalized to 25 mg/kg; read-out: Exposure/trapezoid AUC0-inf

[
  {
    "STRUCTURE SMILES STRING": "CC1(C)OB(O)c2cc(NC(=O)c3ccc(F)cc3C(F)(F)F)ccc21",
    "AUC(0-inf) (µg·h/mL)": 433
  },
  {
    "STRUCTURE SMILES STRING": "O=C(Nc1ccc2c(c1)B(O)OC2)c1ccc(F)cc1C(F)(F)F",
    "AUC(0-inf) (µg·h/mL)": 102
  }
]
